- procedure details: Viability (MTT) and DNA biosynthesis, summary statements over the tested cell lines
- Format: cell-based, human
- assay context: human; MTT, 24 h; range over the tested cell lines; read-out: IC50, cytotoxic activity (range over cell lines)
Measured IC50 at 24 h, listed per entry for reference.

CC(=O)C[Se]C(=O)c1cc(C(=O)[Se]CC(C)=O)cc(C(=O)[Se]CC(C)=O)c1 [EDAG-8]: 410 to 710 nM

stdin: Field request: IC50 at 24 h | item: CC(=O)C[Se]C(=O)c1ccc(C(=O)[Se]CC(C)=O)cc1 [EDAG-1]
stdout: 410 to 710 nM

* * *

- Tested on: MDA-MB-231 triple-negative breast cancer cells
- procedure details: DNA biosynthesis assay ([3H]-thymidine incorporation), MDA-MB-231
- Type: cell-based, human
- assay context: MDA-MB-231, 24 h incubation; read-out: IC50, DNA biosynthesis
pIC50: −log10 of the molar value.
endpoint label: pIC50

stdin: Which pIC50 reading was recorded for the molecule N.N.[Cl][Pt][Cl] [Cisplatin, reference compound] ?
stdout: < 5.30

* * *

- Test system: MDA-MB-231 triple-negative breast cancer cells
- procedure details: DNA biosynthesis assay ([3H]-thymidine incorporation), MDA-MB-231
- Type: cell-based, human
- assay context: Homo sapiens, MDA-MB-231, 24 h, read-out: IC50, DNA biosynthesis
endpoint label: IC50 (nM)
Entry rule: numbers only, all in nM.

Use the examples below as a reference point.
CC(=O)C[Se]C(=O)c1ccc(C(=O)[Se]CC(C)=O)cc1 [EDAG-1]: 700
CC(=O)C[Se]C(=O)c1cc(C(=O)[Se]CC(C)=O)cc(C(=O)[Se]CC(C)=O)c1 [EDAG-8]: 470
N#CC[Se]C(=O)c1ccc(C(=O)[Se]CC#N)cc1 [EDAG-7]: 2040

stdin: Endpoint output: IC50 of N#CC[Se]C(=O)c1cc(C(=O)[Se]CC#N)cc(C(=O)[Se]CC#N)c1 [EDAG-10] . Value?
stdout: 1560

* * *

- Test system: MCF-7 breast cancer cells
- procedure details: DNA biosynthesis assay ([3H]-thymidine incorporation), MCF-7
- Format: cell-based, human
- assay context: MCF-7, 24 h incubation; read-out: IC50, DNA biosynthesis
endpoint label: IC50

stdin: Quick check: IC50 on MCF-7 breast cancer cells, item N.N.[Cl][Pt][Cl] [Cisplatin, reference compound] ?
stdout: > 5 µM
